The measurements presented in this section are drawn from patent US8969363B2.

Reported IC50 is given for each of the following compounds.
measurement.target: PI3Kβ
Sequence (Q8BTI9 whole entry): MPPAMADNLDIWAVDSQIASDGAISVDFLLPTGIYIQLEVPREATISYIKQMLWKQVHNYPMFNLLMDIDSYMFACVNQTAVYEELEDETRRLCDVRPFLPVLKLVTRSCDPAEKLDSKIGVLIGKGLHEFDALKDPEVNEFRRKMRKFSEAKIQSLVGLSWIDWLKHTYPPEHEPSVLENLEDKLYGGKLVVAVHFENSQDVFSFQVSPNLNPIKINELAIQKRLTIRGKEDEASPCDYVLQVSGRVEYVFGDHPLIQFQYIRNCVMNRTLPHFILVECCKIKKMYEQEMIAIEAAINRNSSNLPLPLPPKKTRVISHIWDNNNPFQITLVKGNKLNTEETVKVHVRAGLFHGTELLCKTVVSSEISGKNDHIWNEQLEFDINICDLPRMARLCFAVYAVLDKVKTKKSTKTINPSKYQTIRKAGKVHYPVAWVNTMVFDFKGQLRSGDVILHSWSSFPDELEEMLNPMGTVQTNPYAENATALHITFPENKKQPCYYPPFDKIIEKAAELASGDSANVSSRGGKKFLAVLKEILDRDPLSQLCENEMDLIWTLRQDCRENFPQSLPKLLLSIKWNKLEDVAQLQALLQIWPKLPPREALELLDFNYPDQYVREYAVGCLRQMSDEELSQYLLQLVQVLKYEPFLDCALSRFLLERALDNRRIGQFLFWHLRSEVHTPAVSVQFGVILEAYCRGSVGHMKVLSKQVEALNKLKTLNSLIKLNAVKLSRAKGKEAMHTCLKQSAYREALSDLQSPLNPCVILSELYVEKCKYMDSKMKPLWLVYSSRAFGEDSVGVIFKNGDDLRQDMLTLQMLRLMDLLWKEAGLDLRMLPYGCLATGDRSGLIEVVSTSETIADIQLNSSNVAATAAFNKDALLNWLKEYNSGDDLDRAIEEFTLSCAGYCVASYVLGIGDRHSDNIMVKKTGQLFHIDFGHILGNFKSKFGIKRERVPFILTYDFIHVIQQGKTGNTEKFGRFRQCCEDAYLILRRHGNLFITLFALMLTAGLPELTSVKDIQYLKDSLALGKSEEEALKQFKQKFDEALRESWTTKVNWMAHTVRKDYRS
procedure.summary: PI3 Kinase HTRF assay, PI3Kβ
Type: biochemical, human
experimental.context: 10 μM PIP2, 10 μM ATP; 'Greater than 10 μM' and 'Greater than 1 μM to 10 μM'; read-out: PI3K β IC50
assay.endpoint: IC50

• C[C@@H](Nc1ncnc2cc(F)ccc12)c1cc2cccc(Cl)c2c(=O)n1-c1ccccc1 = > 10 µM
• C[C@H](Nc1cc(O)nc2cccnc12)c1cc2cccc(Cl)c2c(=O)n1-c1ccccc1 = > 10 µM
• C[C@H](Nc1ncnc2cccnc12)c1cc2cccc(C(=O)O)c2c(=O)n1-c1ccccc1 = > 10 µM
• COc1nc(N[C@@H](C)c2cc3cccc(C(F)(F)F)c3c(=O)n2-c2cccc(F)c2)c2ncccc2n1 = > 10 µM
• C[C@H](Nc1nc(N)nc2cccnc12)c1cc2cccc(N(C)C)c2c(=O)n1-c1ccccc1 = > 10 µM
• Cc1cn2nccc(N[C@@H](C)c3cc4cccc(C(F)(F)F)c4c(=O)n3-c3ccccc3)c2n1 = > 10 µM
• COc1cncc(-c2cccc3cc([C@H](C)Nc4ncnc5cccnc45)n(-c4ccccc4)c(=O)c23)c1 = > 10 µM
• C[C@H](Nc1c(C#N)cnc2cccnc12)c1cc2cccc(Cl)c2c(=O)n1-c1cccc(F)c1 = > 10 µM
• C[C@H](Nc1ncnc(N)c1C#N)c1cc2cccc(C(F)(F)F)c2c(=O)n1-c1ccccc1 = > 10 µM
• C[C@H](Nc1ncnc2[nH]nc(C#N)c12)c1cc2cccc(Cl)c2c(=O)n1-c1ccccc1 = 1 to 10 µM
• COc1ncc(-c2cccc3cc([C@H](C)Nc4ncnc5cccnc45)n(-c4ccccc4)c(=O)c23)cn1 = > 10 µM
• Cc1ccnc2cc(C(C)Nc3ncnc4cccnc34)[nH]c(=O)c12 (stereo not shown) = > 10 µM
• C[C@H](Nc1ncnc(N)n1)c1cc2cccc(Cl)c2c(=O)n1-c1cccc(F)c1 = > 10 µM
• COc1ncc(-c2cccc3cc([C@H](C)Nc4nc(OC)nc5cccnc45)n(-c4ccccc4)c(=O)c23)cn1 = > 10 µM
• C[C@H](Nc1cc(N)nc2ccnn12)c1cc2cccc(Cl)c2c(=O)n1-c1ccccc1 = 1 to 10 µM
• C[C@H](Nc1ncnc2cccnc12)c1cc2cccc(-c3cnc(N)nc3)c2c(=O)n1-c1ccccc1 = 1 to 10 µM

----------
measurement.target: PI3Kβ
procedure.summary: PI3 Kinase HTRF assay, PI3Kβ
Assay type: biochemical, human
experimental.context: 10 μM PIP2, 10 μM ATP; 'Greater than 10 μM' and 'Greater than 1 μM to 10 μM'; read-out: PI3K β IC50
pIC50: −log10 of the molar value.
assay.endpoint: pIC50

* C[C@H](Nc1ccnc2cccnc12)c1cc2cccc(-c3cnn(C)c3)c2c(=O)n1-c1ccccc1 | 5.00 to 6.00
* Cc1cn2nccc(N[C@@H](C)c3cc4cccc(-c5cnn(C)c5)c4c(=O)n3-c3ccccc3)c2n1 | < 5.00
* C[C@H](Nc1ccn2nccc2n1)c1cc2cccc(Cl)c2c(=O)n1-c1ccccc1 | < 5.00
* Cc1ncc(-c2cccc3cc([C@H](C)Nc4nc(N)nc5cccnc45)n(-c4ccccc4)c(=O)c23)cn1 | < 5.00
* C[C@H](Nc1ccnc2ccnn12)c1cc2cccc(Cl)c2c(=O)n1CCN1CCCC1 | 5.00 to 6.00
* C[C@H](Nc1ncnc2[nH]cc(F)c12)c1cc2cccc(C(F)(F)F)c2c(=O)n1-c1ccccc1 | 5.00 to 6.00

----------
measurement.target: PI3Kβ
procedure.summary: PI3 Kinase HTRF assay, PI3Kβ
Type: biochemical, human
experimental.context: 10 μM PIP2, 10 μM ATP; 'Greater than 10 μM' and 'Greater than 1 μM to 10 μM'; read-out: PI3K β IC50
pIC50: −log10 of the molar value.
Reported pIC50 is given for each of the following molecules.
assay.endpoint: pIC50

* Cc1cc(-c2cccc3cc([C@H](C)Nc4ncnc5cccnc45)n(-c4ccccc4)c(=O)c23)cnc1C | < 5.00
* C[C@H](Nc1cc(Cl)ncc1C(N)=O)c1cc2cccc(Cl)c2c(=O)n1-c1ccccc1 | < 5.00
* CNc1nc(N[C@@H](C)c2cc3cccc(NC)c3c(=O)n2-c2ccccc2)c2ncccc2n1 | < 5.00
* Cc1cccc2cc([C@H](C)Nc3nc(N)nc4cccnc34)n(-c3cccc(F)c3)c(=O)c12 | 5.00 to 6.00
* Cc1ncc(-c2cccc3cc([C@H](C)Nc4nc(N)nc5cccnc45)n(-c4cccc(F)c4)c(=O)c23)cn1 | < 5.00
* C[C@H](Nc1ccnn2ccnc12)c1cc2scc(-c3cnn(C)c3)c2c(=O)n1-c1ccccc1 | < 5.00
* CC(C)n1c([C@H](C)Nc2ncnc3cccnc23)cc2cccc(-c3ccc(=O)n(C)c3)c2c1=O | 5.00 to 6.00

----------
measurement.target: PI3Kβ
procedure.summary: PI3 Kinase HTRF assay, PI3Kβ
Type: biochemical, human
experimental.context: 10 μM PIP2, 10 μM ATP; 'Greater than 10 μM' and 'Greater than 1 μM to 10 μM'; read-out: PI3K β IC50
Description: A PI3-Kinase HTRF® assay kit (cat No. 33-016) purchased from Millipore Corporation was used to screen compounds provided herein. […] The biotinylated PIP3 and the GST-tagged PH domain recruited fluorophores (Streptavidin-Allophycocyanin and Europium-labeled anti-GST respectively) to form the fluorescence resonance energy transfer (FRET) architecture, generating a stable time-resolved FRET signal. […]
assay.endpoint: IC50

* COc1ncc(-c2cccc3cc([C@H](C)Nc4nc(O)nc5cccnc45)n(-c4ccccc4)c(=O)c23)cn1 | > 10 µM
* C[C@H](Nc1ncnc2ccnn12)c1cc2cccc(Cl)c2c(C(=O)N2CCOCC2)n1 | 1 to 10 µM
* C[C@H](Nc1c(C#N)cnc2cccnc12)c1cc2cccc(-c3cnn(C)c3)c2c(=O)n1-c1ccccc1 | > 10 µM
* Cc1nn(C)cc1-c1cccc2cc([C@H](C)Nc3ncnc4cccnc34)n(-c3ccccc3)c(=O)c12 | > 10 µM
* C[C@H](Nc1ccnc2ccnn12)c1cc2cccc(Cl)c2c(=O)n1-c1cccc(F)c1 | 1 to 10 µM
* C[C@H](Nc1nc(N)nc2scnc12)c1cc2cccc(C(F)(F)F)c2c(=O)n1-c1ccccc1 | 1 to 10 µM
* Cc1cc(-c2cccc3cc([C@H](C)Nc4nc(N)nc5cccnc45)n(-c4ccccc4)c(=O)c23)ccn1 | 1 to 10 µM
* C[C@H](Nc1nc(N)nc2nccnc12)c1cc2cccc(Cl)c2c(=O)n1-c1ccccc1 | 1 to 10 µM
* C[C@@H](c1cc2cccc(Cl)c2c(=O)n1-c1ccccc1)n1c(=O)[nH]c2cnc(N)nc21 | > 10 µM
* COc1ncc(-c2cccc3cc([C@H](C)Nc4cc(N)nc5ccnn45)n(-c4ccccc4)c(=O)c23)cn1 | > 10 µM
* Cc1ncc(-c2cccc3cc([C@H](C)Nc4nc(N)nc5cccnc45)n(-c4ccccc4)c(=O)c23)s1 | 1 to 10 µM
* COc1ncc(-c2cccc3cc([C@H](C)Nc4ncnc5cccnc45)n(-c4cccc(F)c4)c(=O)c23)cn1 | > 10 µM
* C[C@H](Nc1ccnc2ccnn12)c1cc2cccc(-c3cnn(C)c3)c2c(=O)n1C1CC1 | 1 to 10 µM
* C[C@H](Nc1ncnc2cnccc12)c1cc2cccc(Cl)c2c(=O)n1-c1ccccc1 | > 10 µM
* C[C@H](Nc1nc(Cl)nc2cccnc12)c1cc2cccc(-c3cnn(C)c3)c2c(=O)n1C1CC1 | > 10 µM
* C[C@H](Nc1nc(N)nc2cccnc12)c1cc2cccc(-c3cnn(C)c3)c2c(=O)n1-c1ccccc1 | > 10 µM

----------
Reported pIC50 is given for each of the following compounds.
measurement.target: PI3Kβ
procedure.summary: PI3 Kinase HTRF assay, PI3Kβ
Assay type: biochemical, human
experimental.context: 10 μM PIP2, 10 μM ATP; 'Greater than 10 μM' and 'Greater than 1 μM to 10 μM'; read-out: PI3K β IC50
pIC50: −log10 of the molar value.
assay.endpoint: pIC50

- C[C@H](Nc1ccnn2ccnc12)c1cc2cccc(Cl)c2c(=O)n1CCN1CCCC1: 5.00 to 6.00
- C[C@H](Nc1nc(Cl)ns1)c1cc2cccc(Cl)c2c(=O)n1-c1ccccc1: < 5.00
- C[C@H](Nc1ncnn2cncc12)c1cc2cccc(C(F)(F)F)c2c(=O)n1-c1ccccc1: < 5.00
- C[C@H](Nc1nc(Cl)nc2cccnc12)c1cc2cccc(-c3cnn(C)c3)c2c(=O)n1-c1cccc(F)c1: < 5.00
- C[C@H](Nc1nc(Cl)nc2scnc12)c1cc2cccc(C(F)(F)F)c2c(=O)n1-c1ccccc1: 5.00 to 6.00
- Cc1nsc2cc(C(C)Nc3ncnc4cccnc34)n(-c3ccccc3)c(=O)c12 (stereo not shown): < 5.00
- C[C@H](Nc1ncnc2cccnc12)c1cc2scc(-c3cnn(C)c3)c2c(=O)n1-c1ccccc1: < 5.00
- Cc1cncc(-c2cccc3cc([C@H](C)Nc4nc(N)nc5cccnc45)n(-c4ccccc4)c(=O)c23)c1: 5.00 to 6.00
- C[C@H](Nc1nc(Cl)nc2nccnc12)c1cc2cccc(Cl)c2c(=O)n1-c1ccccc1: < 5.00
- C[C@H](Nc1ccnc2cccnc12)c1cc2cccc(Cl)c2c(=O)n1-c1cccc(F)c1: 5.00 to 6.00
- C[C@H](Nc1ccnn2ccnc12)c1cc2cccc(C(F)(F)F)c2c(=O)n1-c1cccc(F)c1: 5.00 to 6.00
- C[C@H](Nc1ncc(C(F)(F)F)c(N)n1)c1cc2cccc(Cl)c2c(CCN2CCOCC2)n1: < 5.00
- C[C@H](Nc1ccnn2ccnc12)c1cc2cccc(-c3cnn(C)c3)c2c(=O)n1-c1ccccc1: 5.00 to 6.00
- C[C@H](Nc1ncnc2cccnc12)c1cc2cccc(-c3cnn(C)c3)c2c(=O)n1C: < 5.00
- Cc1ncc(-c2cccc3cc([C@H](C)Nc4ncnc5cccnc45)n(-c4ccccc4)c(=O)c23)cn1: < 5.00
- C[C@H](Nc1nc(N)nc2cccnc12)c1nc2cccc(-c3cnn(C)c3)c2c(=O)n1-c1ccccc1: < 5.00
